# ASSAY SUMMARY: Metabolic stability in mouse liver microsomes (MLM)
# Type: in vitro ADME
# EXPERIMENTAL CONDITIONS: mouse liver microsomes
REPORTED ENDPOINT: MLM Cli (µL/min/mg)

CCN1CN(C(=O)CSc2ncnc3sc(C)c(Cl)c23)CC1=O | 43

I. Cc1sc2ncnc(SCC(=O)N3CCn4cnnc4C3)c2c1Cl
II. Cc1sc2ncnc(SCC(=O)N3CC(=O)N(C4CC4)C3)c2c1Cl
Kindly identify which of I and II has the larger recorded MLM Cli value. Provide the label of your selected option as the answer.
II

###

# Tested on: P-gp (MDR1)
# ASSAY SUMMARY: MDCK-MDR1 cell permeability and efflux
# Assay type: in vitro ADME
# EXPERIMENTAL CONDITIONS: dog, MDCK-MDR1, A to B direction; read-out: MDCK-MDR1 AB Papp
REPORTED ENDPOINT: Papp (×10⁻⁶ cm/s)

For orientation, consider the following solved cases.
CCN1CCN(C(=O)CSc2ncnc3sc(C)c(Cl)c23)CC1=O | 1.1
Cc1sc2ncnc(SCC(=O)N3CCNC(=O)C3)c2c1Cl | 12
Cc1sc2ncnc(SCC(=O)N3CCN(C)C(=O)C3)c2c1Cl | 23
CCc1nnc2n1CCN(C(=O)CSc1ncnc3sc(C)c(Cl)c13)C2 | 0.8
Cc1sc2ncnc(SCC(=O)N3CCn4nc(C(F)(F)F)nc4C3)c2c1Cl | 15

I. Cc1sc2ncnc(SCC(=O)N3CNC(=O)C3)c2c1Cl
II. Cc1sc2ncnc(SCC(=O)N3CC(=O)N(C)C3)c2c1C
Param metric = Papp; output whichever of I , II has the minimum value. Choose, then provide that item's label.
I
(I: 14 ×10⁻⁶ cm/s, II: 21 ×10⁻⁶ cm/s)
